pIC50 reference
Tested on: H1975
Assay: Cell anti-proliferation experiment (CTG)
Assay type: cell-based
Details: Homo sapiens, NCI-H1975; H1975 (EGFR T790M/L858R), 72 hours, class symbol
pIC50: −log10 of the molar value.
valueType: pIC50

{"molecule": "CCc1cc(Nc2ncc(Cl)c(Nc3ccc4nccnc4c3P(C)(C)=O)n2)c(OC)cc1N1CCN(C(=O)CN2CCC(c3cc4c(cc3F)c(N3CCC(=O)NC3=O)nn4C)C(F)(F)C2)CC1 (centres unmarked)", "result": "6.00 to 7.00"}
{"molecule": "CCc1cc(Nc2ncc(Br)c(Nc3ccccc3P(C)(C)=O)n2)c(OC)cc1N1CC2(CCN(C(=O)CN3CCC(c4cc5c(cc4F)c(N4CCC(=O)NC4=O)nn5C)C(F)(F)C3)CC2)C1 (centres unmarked)", "result": "> 8.00"}
{"molecule": "CCc1cc(Nc2ncc(Cl)c(Nc3ccccc3C(=O)NC)n2)c(OC)cc1N1CCN(C(=O)CN2CCC(c3ccc4c(N5CCC(=O)NC5=O)nn(C)c4c3)C(F)(F)C2)CC1 (centres unmarked) [Comparative Example 1-1, reference compound]", "result": "7.00 to 8.00"}
{"molecule": "CCc1cc(Nc2ncc(Br)c(Nc3ccccc3P(C)(C)=O)n2)c(OC)cc1N1CCN(C(=O)CN2CCC(c3cc4c(cc3F)c(N3CCC(=O)NC3=O)nn4C)C(F)(F)C2)CC1 (centres unmarked)", "result": "7.00 to 8.00"}
{"molecule": "CCc1cc(Nc2ncc(Cl)c(Nc3ccccc3C(=O)NC)n2)c(OC)cc1N1CCN(C(=O)CN2CCC(c3cc4c(cc3F)c(N3CCC(=O)NC3=O)nn4C)C(F)(F)C2)CC1 (centres unmarked)", "result": "> 8.00"}

###

Molecular target: EGFR in Baf3-19del-T790M-C797S (Homo sapiens, UniProt P00533, C797S/DEL746-750/T790M)
Sequence (P00533 with tags, fused parts or gaps DEL746-750/T790M/C797S): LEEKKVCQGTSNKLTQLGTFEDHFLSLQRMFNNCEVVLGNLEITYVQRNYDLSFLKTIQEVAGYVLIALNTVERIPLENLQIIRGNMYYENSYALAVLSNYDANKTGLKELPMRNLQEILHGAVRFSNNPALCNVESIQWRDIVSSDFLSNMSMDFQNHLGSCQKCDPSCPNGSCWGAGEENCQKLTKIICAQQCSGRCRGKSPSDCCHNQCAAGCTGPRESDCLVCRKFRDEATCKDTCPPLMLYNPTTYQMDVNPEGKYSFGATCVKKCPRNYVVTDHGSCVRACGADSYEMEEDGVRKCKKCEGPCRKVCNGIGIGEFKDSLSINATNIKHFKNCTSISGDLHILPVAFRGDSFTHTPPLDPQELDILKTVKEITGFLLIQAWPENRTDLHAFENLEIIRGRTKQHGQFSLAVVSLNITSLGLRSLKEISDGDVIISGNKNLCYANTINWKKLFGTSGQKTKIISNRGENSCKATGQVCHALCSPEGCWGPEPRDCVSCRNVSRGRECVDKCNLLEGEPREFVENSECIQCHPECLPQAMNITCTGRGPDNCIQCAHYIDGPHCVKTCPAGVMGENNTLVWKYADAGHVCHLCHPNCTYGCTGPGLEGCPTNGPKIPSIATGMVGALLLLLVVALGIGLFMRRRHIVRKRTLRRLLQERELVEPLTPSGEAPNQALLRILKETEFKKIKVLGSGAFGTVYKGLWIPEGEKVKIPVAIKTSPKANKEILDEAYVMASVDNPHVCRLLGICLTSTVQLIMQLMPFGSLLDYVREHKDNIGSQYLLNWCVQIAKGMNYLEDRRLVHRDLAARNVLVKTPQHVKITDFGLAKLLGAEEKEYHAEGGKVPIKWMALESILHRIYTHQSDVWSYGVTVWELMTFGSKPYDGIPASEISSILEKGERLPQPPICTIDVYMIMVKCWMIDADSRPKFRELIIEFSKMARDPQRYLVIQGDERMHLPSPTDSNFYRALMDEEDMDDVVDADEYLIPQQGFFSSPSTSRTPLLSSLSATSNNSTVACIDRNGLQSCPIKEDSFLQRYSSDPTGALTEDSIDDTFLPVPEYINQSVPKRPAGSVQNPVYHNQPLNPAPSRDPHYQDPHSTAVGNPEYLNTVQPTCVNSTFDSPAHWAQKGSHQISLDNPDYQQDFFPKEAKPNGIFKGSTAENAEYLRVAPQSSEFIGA
Assay: EGFR PROTAC HTRF experiment (total EGFR degradation)
Assay type: cell-based
Conditions: Baf3-DTC, incubated 16 hours, HTRF total EGFR; read-out: Baf3-DTC DC50
valueType: DC50

{"molecule": "CCc1cc(Nc2ncc(Cl)c(Nc3ccccc3C(=O)NC)n2)c(OC)cc1N1CCN(CCN2CCC(c3cc4c(cc3F)c(N3CCC(=O)NC3=O)nn4C)CC2)CC1", "valueType": "DC50", "result": "100 to 1000 nM"}
{"molecule": "CCc1cc(Nc2ncc(Cl)c(Nc3ccccc3N(C)S(C)(=O)=O)n2)c(OC)cc1N1CCN(C(=O)CN2CCC(c3cc4c(cc3F)c(N3CCC(=O)NC3=O)nn4C)C(F)(F)C2)CC1 (stereo not shown)", "valueType": "DC50", "result": "< 10 nM"}
{"molecule": "COc1cc(N2CCC(CN3CCN(c4ccc5c(c4)C(=O)N(C4CCC(=O)NC4=O)C5=O)CC3)CC2)c(-c2cnn(C)c2)cc1Nc1ncc(Br)c(Nc2ccc(C3CC3)cc2P(C)(C)=O)n1 (stereo not shown) [DZL-1, reference compound]", "valueType": "DC50", "result": "10 to 100 nM"}
{"molecule": "CCc1cc(Nc2ncc(Cl)c(Nc3ccccc3P(C)(C)=O)n2)c(OC)cc1N1CCN(C(=O)CN2CCC(c3cc4c(cc3F)c(N3CCC(=O)NC3=O)nn4C)C(F)(F)C2)[C@@H](C)C1 (stereo partly shown)", "valueType": "DC50", "result": "10 to 100 nM"}
{"molecule": "CCc1ccc(Nc2nc(Nc3cc(CC)c(N4CCN(C(=O)CN5CCC(c6cc7c(cc6F)c(N6CCC(=O)NC6=O)nn7C)C(F)(F)C5)CC4)cc3OC)ncc2Cl)c(P(C)(C)=O)c1 (stereo not shown)", "valueType": "DC50", "result": "10 to 100 nM"}
{"molecule": "CCc1cc(Nc2ncc(Br)c(Nc3ccccc3C(=O)NC)n2)c(OC)cc1N1CCN(C(=O)CN2CCC(c3cc4c(cc3F)c(N3CCC(=O)NC3=O)nn4C)C(F)(F)C2)CC1 (stereo not shown)", "valueType": "DC50", "result": "100 to 1000 nM"}
{"molecule": "CCc1cc(Nc2ncc(Cl)c(Nc3ccccc3P(C)(C)=O)n2)c(OC)cc1N1CCN(C(=O)CN2CCC(c3cc4c(cc3F)c(N3CCC(=O)NC3=O)nn4C)C(F)(F)C2)CC1 (stereo not shown)", "valueType": "DC50", "result": "< 10 nM"}
{"molecule": "CCc1cc(Nc2ncc(Cl)c(Nc3ccc(OC)cc3C(C)=O)n2)c(OC)cc1N1CCN(C(=O)CN2CCC(c3cc4c(cc3F)c(N3CCC(=O)NC3=O)nn4C)C(F)(F)C2)CC1 (stereo not shown)", "valueType": "DC50", "result": "100 to 1000 nM"}
{"molecule": "CCc1cc(Nc2ncc(Cl)c(Nc3ccccc3P3(=O)CCCC3)n2)c(OC)cc1N1CCN(C(=O)CN2CCC(c3cc4c(cc3F)c(N3CCC(=O)NC3=O)nn4C)C(F)(F)C2)CC1 (stereo not shown)", "valueType": "DC50", "result": "10 to 100 nM"}
{"molecule": "CCc1cc(Nc2ncc(Cl)c(Nc3ccccc3P(C)(C)=O)n2)c(OC)cc1N1CC2(CCN(C(=O)CN3CCC(c4cc5c(cc4F)c(N4CCC(=O)NC4=O)nn5C)C(F)(F)C3)CC2)C1 (stereo not shown)", "valueType": "DC50", "result": "10 to 100 nM"}
